Listed molecules paired with reported z-score
METHOD_SUMMARY: small molecules boosting NK-mediated OVCAR3 lysis – imaging, primary NK cells, calcein-AM imaging, primary screen (AID 1508625);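 note: compound given to NK cells 16 h before adding targets at 1.5 to 1 ratio; more negative robust z means stronger NK killing of tumor cells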
STATED_CONDITIONS: OVCAR3 lysis by primary NK cells, at 5 µM; measured here: robust Z-score, single-point normalisation
TEST_READOUT: z-score

In [3]: df
Out[3]:
                                    molecule  recorded_measurement
 0  O=C(c1ccc2c(=O)n(Cc3ccco3)c(=S)[nH]c2c1)N1CCOCC1                  -1.2
 1  CCCCOc1ccc(C(=O)N2N=C(C)CC2(O)C(F)(F)F)cc1 (configuration not stated)                 -2.66
 2  Cc1ccc(C(=O)Nc2cccc(C(=O)N3CCOCC3)c2)cc1Cl               -0.0182
 3  CCC1CCCCN1C(=O)c1cc2c(=O)n3ccccc3nc2s1 (configuration not stated)                 -1.47
 4  CC1=NN(C(=O)C(C)C)C(O)(c2ccccc2)C1 (configuration not stated)                 -3.83
 5      c1ccc(CN2CCN(Cc3ccc4ccccc4c3)CC2)nc1                 -1.08
 6  Cn1c(SCc2c[nH]c3cc([N+](=O)[O-])ccc23)nc2sc3c(c2c1=O)CCCC3                 -0.47
 7               CC1CCN(CCCCCOc2ccccc2Br)CC1               -0.0828
 8     Cc1nn2c(N)cc(-c3ccccc3)nc2c1-c1ccccc1                -0.365
 9  COc1ccccc1C(=O)N1CCN(S(=O)(=O)c2ccc(C)cc2)CC1                 -1.35
10  COc1ccc([N+](=O)[O-])cc1N=Cc1ccc(N(C)C)cc1                 -2.12
11  O=C(Nc1ccc(Cl)cc1)c1ccc(F)c(S(=O)(=O)N2CCOCC2)c1                 -1.77
12        CCOC(=O)c1ccc(NC(=O)CCc2ccccc2)cc1                 -1.15
13       c1ccc2nn(C34CC5CC(CC(C5)C3)C4)nc2c1                -0.685
14                   C=CCNC(=O)c1ccc2snnc2c1                -0.478
15  O=C1C2C3C=CC(CC3)C2C(=O)N1c1ccccc1[N+](=O)[O-] (configuration not stated)                 -1.04
16  O=C(Cn1cnc2sc3c(c2c1=O)CCCC3)NCCCC(=O)Nc1ccccc1F                 -1.01
17  COC(=O)c1cc(NC(=O)c2cc3nc(-c4ccc(Cl)cc4)cc(C(F)(F)F)n3n2)cc(C(=O)OC)c1                 -2.54
18          Brc1ccc(-c2noc(CSc3ccccc3)n2)cc1                -0.187
19                     COCCNCCCSc1ccc(Cl)cc1                -0.737
20  C#CCN1C(=O)C(O)(CC(=O)c2cccc3ccccc23)c2ccccc21 (configuration not stated)                 -2.06
21                    OCCNCCCOc1cccc(Cl)c1Cl                 0.743
22  O=c1c2c(nc3c(-c4ccc(Cl)cc4)c(Cc4ccccc4)[nH]n13)CCC2                    -2
23  COc1ccccc1NC(=O)c1ccccc1NC(=O)c1ccc(F)cc1                 -1.45
24  NC(=O)c1ccccc1NC(=O)c1ccc(-c2cccc(Cl)c2)o1                 -1.94
25  O=C(Cn1cnc2ccccc2c1=O)NCCC(=O)NC1CCCCCC1                 -1.17
26  CC1CCC2C(=O)N(c3ccc(N4CC5(C)CC4CC(C)(C)C5)c([N+](=O)[O-])c3)C(=O)C2C1 (configuration not stated)                -0.661
27  COc1ccc(C(O)=C2C(=O)C(=O)N(CCN3CCNCC3)C2c2ccc(OC)cc2)cc1 (configuration not stated)                 -1.87
28  CC(C)CCNC(=O)c1c[nH]c2ccc(S(=O)(=O)N3CC(C)CC(C)C3)cc2c1=O (configuration not stated)                 -1.21
29     CC(=O)Nc1ccc(-n2c(C)ccc2C)c(C(=O)O)c1                 -1.01
30  CC(C)c1ccc(NC(=O)C2c3ccccc3C(=O)N(C)C2c2cccs2)cc1 (configuration not stated)                  -1.9
31  CCOc1ccc(-n2c(SCc3ccccc3Cl)nc3c(c2=O)SCC3)cc1                -0.774

src = PubChem BioAssay AID1508625
